biological target: Sho1, P40073; assay: SPOT array; settings: median of control spots 1148
Sequence (P40073 287-367): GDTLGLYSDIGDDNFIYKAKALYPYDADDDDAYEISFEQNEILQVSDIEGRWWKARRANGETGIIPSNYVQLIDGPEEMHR

{"binder": "VGFRLALKFPSRITG", "SPOT intensity": 718}
{"binder": "KRKRRLPVSEDTNTK", "SPOT intensity": 54}
{"binder": "IKTRSVPKIPSIESV", "SPOT intensity": 4}
{"binder": "TSFKGRPKPPKTLKH", "SPOT intensity": 43}
